Test: chemical genetic growth profiling, strain panel (AID 1159580);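 further: tested at 20 µM; growth read once vehicle control cultures reached saturation at 30 °C; lower values mean less growth of the strain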
Conditions: S. cerevisiae deletion strains, growth OD, locus YLL026W
In all, about 5,500 compounds went through this assay and about 2,000 (36%) were called active. About 18% were inconclusive and are not listed. No stated cut-off is given here; in the data, active means normalized growth mostly below about 0.91 (no sharp cut-off); inconclusive means no clear call, values can overlap the other calls; inactive means mostly above about 0.92. This is one part of the list.
I would appreciate it if you answered using one of these outcomes: active, inactive

Worked set:
{"columns": ["COMPOUND", "GROUP_LABEL"],
 "data": [
  ["COc1ccc2c(c1OC)C(=O)O[C@H]2[C@H]1c2cc3c(cc2CCN1C)OCO3", "inactive"],
  ["Cc1cccc(C)c1OCC(C)N (stereo unspecified)", "inactive"],
  ["CCCCNc1cc(C(=O)O)cc(S(N)(=O)=O)c1Oc1ccccc1", "inactive"],
  ["CC1CC2C3CCC4=CC(=O)C=C[C@]4(C)[C@@]3(F)[C@@H](O)C[C@]2(C)[C@@]1(O)C(=O)CO (stereo partly specified)", "inactive"],
  ["CC1=C(/C=C/C(C)=C/C=C/C(C)=C/C=C/C=C(C)/C=C/C=C(C)/C=C/C2=C(C)C(=O)CCC2(C)C)C(C)(C)CCC1=O", "inactive"],
  ["CC(=O)O[C@@H]1C[C@@]2(C)C(CC[C@@H]2C(C)=O)C2CCC3=CC(=O)CC[C@]3(C)C21 (stereo partly specified)", "inactive"]
]}

Test call, this compound: C[C@H]1CC2C([C@@H](O)C[C@@]3(C)C2CC[C@]3(O)C(=O)CO)[C@@]2(C)C=CC(=O)C=C12 (stereo partly specified) inactive

# fetch the recorded call for CN(C)C(=S)SSC(=S)N(C)C here active

Entry CC1=C(/C=C/C(C)=C/C=C/C(C)=C/C=C/C=C(C)/C=C/C=C(C)/C=C/C(=O)[C@]2(C)C[C@@H](O)CC2(C)C)C(C)(C)C[C@H](O)C1 : call = ? inactive

Hi team, can someone confirm the assay call for c1ccc(N=Nc2ccccc2)cc1 ? inactive
